molecules and their reported GI50
tested on: MCF7; assay: NCI tumour cell line growth inhibition, 48 h
Activity calls are given as the source filed them. Rule as the data show it: active = GI50 up to about 1.1 µM and inactive = higher.
MEASURED_METRIC: GI50

INSERT INTO measurements (molecule, recorded_value) VALUES
  ('O=C1c2ccccc2OCC12OC21C=CC(Cl)=CC1 (stereo not drawn)', '33.4 µM (inactive)'),
  ('CC(C)(C)OC(=O)NCC(=O)NC1c2ccsc2/C(=N/O)[C@H]1O (stereo partly drawn)', '> 100 µM (inactive)'),
  ('O=[N+]([O-])c1ccc2c(c1)Nc1c3ccccc3nc3cccc-2c13', '0.219 µM (active)'),
  ('CN(C)C1(N(C)C)Oc2c(c(=O)n(C)c(=O)n2C)C(c2ccc(F)cc2)C1(F)F (stereo not drawn)', '> 100 µM (inactive)'),
  ('Nc1ccc2c(SCCSc3c4ccccc4nc4cc(N)ccc34)c3ccccc3nc2c1', '> 100 µM (inactive)'),
  ('O=C(Nc1nnc(-c2ccccc2)o1)C(SC(=S)N1CCCC1)c1ccccc1 (stereo not drawn)', '31.3 µM (inactive)'),
  ('O=C(O)Cn1nnc2c(=O)[nH][nH]c(=O)c21', '> 100 µM (inactive)'),
  ('O=P(O)(O)CN1CCNCCN(CP(=O)(O)O)CC1', '8.79 µM (inactive)'),
  ('CCOC(=O)C1CCC/C1=N\NC(=N)N.Cc1cc(O)c(C(C)C)cc1S(=O)(=O)O (stereo not drawn)', '> 100 µM (inactive)'),
  ('O=C(NNc1cn[nH]c(=O)c1Cl)/C(=C/c1ccc2c(c1)OCO2)NC(=O)c1ccccc1', '41.5 µM (inactive)'),
  ('CCOC(=O)C1=C(C)N(Cc2ccccc2)C2(O)C=CC(O)=C3C(=O)c4ccccc4C(=O)C312 (stereo not drawn)', '0.128 µM (active)'),
  ('COc1cc2c(cc1OC)C(=O)N(c1ccc(OCCN3CCCC3)cc1)C2=O', '> 100 µM (inactive)'),
  ('CCCc1cn2c(/C=N/NC(=N)N)c(-c3ccc(Cl)c([N+](=O)[O-])c3)nc2s1', '1.94 µM (inactive)'),
  ('Brc1cc2nn(-c3ccccc3)nc2c2nonc12', '> 100 µM (inactive)'),
  ('CCN(CC)CC(C)(C)C(=O)/C=C/c1ccc(/C=C/C(=O)C(C)(C)CN(CC)CC)cc1', '0.233 µM (active)'),
  ('CCCCCCCCCC[C@@H](O)[C@@H]1CC[C@@H]([C@@H]2CC[C@@H]([C@@H](O)CCCCCCCCCC[C@H](O)CC3=CC(C)OC3=O)O2)O1 (stereo partly drawn)', '1.44 µM (inactive)'),
  ('CCCCCCCCCCCCCCCCCC(=O)Nc1ccn(C2CCC(COP(=O)(O)O)O2)c(=O)n1 (stereo not drawn)', '> 100 µM (inactive)'),
  ('COc1cc(N(CCC#N)CCC#N)ccc1C(=N/NC(=O)c1cc(Br)ccc1O)/N=N/c1ccc(C)cc1', '17.4 µM (inactive)');
